Each entry below carries its reported GI50.
# System: PC-3
# testDescription: Growth inhibition of human PC3 cells
# Format: functional

Worked examples, 2 compounds total:
{"compound": "CC1=C(CC/C(C)=C/CC[C@@]2(C)CC[C@H]([C@H](C)C(=O)O)OO2)C(C)(C)CCC1", "GI50": "> 5 µM"}
{"compound": "COC(=O)[C@H](C)[C@H]1CC[C@@](C)(CCC2=C(C)CCCC2(C)C)OO1", "GI50": "> 25 µM"}

What reported GI50 corresponds to C=C1CCCC(C)(C)C1CCC1(C)CC[C@H]([C@@H](C)C(=O)O)OO1 (single isomer, unassigned) on PC-3? > 12.5 µM
